Hello, the source for this data is patent US20230357320A1, in case you need it.

Give PAMPA Pe for every item shown.
Starred links: 1 amine or outer side, 2 acyl side, 3 side chain; linkers in the order of their positions; H or OH if unused. Positions of bridges follow the written chain, without caps; N, C: chain ends. Non-standard residues stand in square brackets, D forms with d. Residues, ends and D or L forms follow the SMILES beside them. X1 = O=C([C@]1(CC=[*:3])CCCN1[*:1])[*:2]; Ala(cPr) = N[C@@H](CC1CC1)C(=O)O; S5 = C=CCCC[C@](C)(N)C(=O)O

// sample CNC(=O)[C@H](CC(=O)O)NC(=O)[C@H](CC(C)C)NC(=O)[C@H](CC(C)C)NC(=O)[C@H](Cc1ccc(O)cc1)NC(=O)[C@]1(C)CCCC=CC[C@]2(CCCN2C(C)=O)C(=O)N[C@@H](CC(C)C)C(=O)N[C@@H](CC(C)C)C(=O)N1 [PLL4-10, Ac-PL3-Leu-Leu-S5-Tyr-Leu-Leu-Asp-NHMe] (Ac-[X1]LL[S5]YLLD-NHMe; staple 1-4) , its PAMPA Pe was 0.6 ± 0.1 (×10^−6) cm/sec

PAMPA Pe reading for CNC(=O)[C@H](CC(N)=O)NC(=O)[C@H](CC(C)C)NC(=O)[C@H](CC(C)C)NC(=O)[C@H](Cc1c[nH]cn1)NC(=O)[C@]1(C)CCCC=CC[C@]2(CCCN2C(C)=O)C(=O)N[C@@H](C)C(=O)N[C@@H](CC(C)C)C(=O)N1 (single isomer, unassigned) : 1.3 ± 0.1 (×10^−6) cm/sec

Record CNC(=O)[C@H](CC(=O)O)NC(=O)[C@H](CCC(N)=O)NC(=O)[C@H](CC(C)C)NC(=O)[C@H](CC(C)C)NC(=O)[C@H](Cc1ccc(O)cc1)NC(=O)[C@]1(C)CCCC=CC[C@]2(CCCN2C(C)=O)C(=O)N[C@@H](CC2CC2)C(=O)N[C@@H](CC(C)C)C(=O)N1 [PLL7-7] (Ac-[X1][Ala(cPr)]L[S5]YLLQD-NHMe; staple 1-4) , field PAMPA Pe: 1.0 ± 0.1 (×10^−6) cm/sec

###

protocolDetails: in vitro;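 also: Phospholipid-membrane PAMPA, donor and acceptor in DPBS pH 7.4 with 5% DMSO, 37 °C for 5 h, compound in each well quantified by reverse-phase HPLC-MS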
Set-up: dose or concentration left out as unconfirmed
conditionDetails: PAMPA, pH 7.4, PAMPA Pe
Starred links: 1 amine or outer side, 2 acyl side, 3 side chain; linkers in the order of their positions; H or OH if unused. Positions of bridges follow the written chain, without caps; N, C: chain ends. Non-standard residues stand in square brackets, D forms with d. Residues, ends and D or L forms follow the SMILES beside them. X1 = O=C([C@]1(CC=[*:3])CCCN1[*:1])[*:2]; Ala(cPr) = N[C@@H](CC1CC1)C(=O)O; S5 = C=CCCC[C@](C)(N)C(=O)O
observable: Papp at 5 h (×10⁻⁶ cm/s)
Form entry: value (×10⁻⁶ cm/s) — number only.

The recorded Papp at 5 h for entry CNC(=O)[C@H](CC(=O)O)NC(=O)[C@H](Cc1c[nH]cn1)NC(=O)[C@H](CC(C)C)NC(=O)[C@H](CC(C)C)NC(=O)[C@H](CCCNC(=N)N)NC(=O)[C@]1(C)CCCC=CC[C@]2(CCCN2C(C)=O)C(=O)N[C@@H](CC(C)C)C(=O)N[C@@H](CC(C)C)C(=O)N1 [PLL7-9] (Ac-[X1]LL[S5]RLLHD-NHMe; staple 1-4) equals 1.1

Papp at 5 h measured on CNC(=O)[C@H](CC(=O)O)NC(=O)[C@H](CCC(N)=O)NC(=O)[C@H](CC(C)C)NC(=O)[C@H](CC(C)C)NC(=O)[C@H](CCCNC(=N)N)NC(=O)[C@]1(C)CCCC=CC[C@]2(CCCN2C(C)=O)C(=O)N[C@@H](CC2CC2)C(=O)N[C@@H](CC(C)C)C(=O)N1 [PLL7-5] (Ac-[X1][Ala(cPr)]L[S5]RLLQD-NHMe; staple 1-4) = 0.8

Kindly note the recorded Papp at 5 h for CNC(=O)[C@H](CC(=O)O)NC(=O)[C@H](Cc1c[nH]cn1)NC(=O)[C@H](CC(C)C)NC(=O)[C@H](CC(C)C)NC(=O)[C@H](CCCNC(=N)N)NC(=O)[C@]1(C)CCCC=CC[C@]2(CCCN2C(C)=O)C(=O)O[C@@H](CC(C)C)C(=O)N[C@@H](CC(C)C)C(=O)N1 (single isomer, unassigned) [PLL7-9 variant 2] , which is 0.3
